# PROCEDURE SUMMARY: Absorption and fluorescence spectra, extinction coefficient, fluorescence quantum yield
# Assay type: physicochemical
# TEST PARAMETERS: Table 10, MeOH
# Protocol: Absorption spectra were recorded on a Hewlett-Packard 8453 diode array UV-Vis spectrophotometer (Agilent Technologies, Inc., Santa Clara, Calif.), and fluorescence measurements were taken on a SPEX® Fluorolog 2 spectrofluorometer (HORIBA Jobin Yvon, Inc., Edison, N.J.). Melting points are not corrected. NMR spectra were obtained on a Varian Mercury 300 MHz (Varian, Inc., Palo Alto, Calif.) or on a Bruker 300 MHz DRX 300 spectrometer (Bruker Biospin Corp., Billerica, Mass.). […]
Some compounds, each annotated with its measured Observed absorption λmax.

INSERT INTO results (compound, measured_value) VALUES
  ('C[n+]1ccc(/C=C/C2=C([O-])c3ccccc3S2(=O)=O)cc1', '505 nm'),
  ('CN1/C(=C/C=C/C=C2/C(=O)c3ccccc3S2(=O)=O)C(C)(C)c2ccccc21 [I-SO, reference compound]', '586 nm');

Observed absorption λmax reading for CC1(C)c2ccccc2-[n+]2ccc(/C=C/C=C/C3=C(O)c4ccccc4S3(=O)=O)cc21 : 610 nm

// sample C[n+]1ccc(/C=C/C=C/C2=C([O-])c3ccccc3S2(=O)=O)cc1 , its Observed absorption λmax was 580 nm
